# targetUnderTest: CDK4/CCND3 (Homo sapiens, UniProt P11802)
# Sequence (P11802 whole entry): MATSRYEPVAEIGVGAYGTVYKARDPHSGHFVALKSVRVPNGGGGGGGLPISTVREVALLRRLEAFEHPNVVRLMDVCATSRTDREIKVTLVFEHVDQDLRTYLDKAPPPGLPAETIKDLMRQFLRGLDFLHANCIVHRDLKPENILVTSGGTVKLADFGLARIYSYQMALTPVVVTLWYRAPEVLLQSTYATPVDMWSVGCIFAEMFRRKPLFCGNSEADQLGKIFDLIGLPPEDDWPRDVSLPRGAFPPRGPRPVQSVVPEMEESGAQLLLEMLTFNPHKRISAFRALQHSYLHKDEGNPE
# Sequence (P30281 whole entry partner): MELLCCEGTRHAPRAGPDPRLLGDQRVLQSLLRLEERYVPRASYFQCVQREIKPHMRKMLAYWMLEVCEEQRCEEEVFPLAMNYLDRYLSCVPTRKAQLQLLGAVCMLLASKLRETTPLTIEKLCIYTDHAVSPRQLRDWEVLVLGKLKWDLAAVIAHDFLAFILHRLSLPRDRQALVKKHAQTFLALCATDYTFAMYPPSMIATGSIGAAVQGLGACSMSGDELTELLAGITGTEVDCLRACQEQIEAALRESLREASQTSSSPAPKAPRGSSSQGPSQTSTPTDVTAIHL
# testMethodNotes: CDK4 homogeneous time-resolved fluorescence (HTRF) kinase assay
# Type: biochemical
# particulars: >250 nM; CDK4/CCND; read-out: CDK4/CCND IC50, >250 nM
pIC50: −log10 of the molar value.
measureName: pIC50

// below: answered compounds
COc1nc(S(C)(=O)=O)ccc1Nc1cc2c(-c3ccc4c(cnn4CC(C)(C)O)c3C)nccc2cn1 = < 6.60
COc1cc(N2CCOCC2)nc(NS(=O)(=O)c2ccc(Nc3cc4c(-c5ccc6c(cnn6CC(O)(C(F)(F)F)C(F)(F)F)c5C)nccc4cn3)cc2)n1 = < 6.60

May I ask what pIC50 has been recorded for Cc1c(-c2nccc3cnc(Nc4ccc(S(=O)(=O)Nc5cccc(N6CCOCC6)c5)cc4)cc23)ccc2c1cnn2CC(O)(C(F)(F)F)C(F)(F)F ? < 6.60

All values here come from patent US20260325533A1.
